- Tested on: NCI-H1341 complex spheroids, percent test/control
- assay.text: Anticancer human tumor NCI-H1341 cell line growth inhibition [AhR];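 also: spheroids exposed to agents for seven days before readout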
- test.context: second compound 0.316 µM; first compound 0.0316 µM; hits give low values
Returns: string. Value is TRUE if measured viability, T/C is below 80%, and FALSE if it is greater than or equal to it.

Study these solved cases before continuing.
molecule	group
COc1cc(C2c3cc4c(cc3C(OC3OC5COC(C)OC5C(O)C3O)C3COC(=O)C23)OCO4)cc(OC)c1O (stereo unspecified) + Cc1ccccc1N=Nc1ccc(NC(=O)c2ccnn2C)c(C)c1	TRUE
CC(C)c1c(-c2ccccc2)nc2c(C#N)c[nH]n2c1=O + Cc1cncc(-c2nc(NCCc3c[nH]c4ccccc34)c3ncn(C(C)C)c3n2)c1	TRUE

viability, T/C strictly < 80% for this molecule? CC[C@@]1(O)C(=O)OCc2c1cc1n(c2=O)Cc2cc3c(CN(C)C)c(O)ccc3nc2-1 + Cc1cncc(-c2nc(NCCc3c[nH]c4ccccc34)c3ncn(C(C)C)c3n2)c1
TRUE

Problem: For the molecule CC1COCCN1c1cc(C2(S(C)(=N)=O)CC2)nc(-c2ccnc3[nH]ccc23)n1 (stereo unspecified) + Cc1cncc(-c2nc(NCCc3c[nH]c4ccccc34)c3ncn(C(C)C)c3n2)c1 , is viability, T/C under 80%?
FALSE

Is viability, T/C of COc1ccc([C@@H](O)c2cc(-c3ncnc4cc(N5CCOCC5)ccc34)c(F)cc2Cl)nn1 + Cc1cncc(-c2nc(NCCc3c[nH]c4ccccc34)c3ncn(C(C)C)c3n2)c1 strictly below 80%?
TRUE
